Test system: metabolism of retinoic acid in human breast cancer cells
Assay: Inhibition of retinoic acid (RA) metabolism (Example C.1)
Type: cell-based
Settings: MCF-7 human breast cancer cells, 3H-RA as substrate; concentration needed to reduce the amount of metabolites to 50% of the control
pIC50: −log10 of the molar value.
measured.metric: pIC50

See these solved cases before continuing.
[
  {
    "molecule": "CCC(CC)C(c1ccc(NC(=O)C(SC)c2ccccc2)cc1)n1ccnc1 (stereo not shown) [Compound 50]",
    "tested.target": "metabolism of retinoic acid in human breast cancer cells",
    "pIC50": 8.13
  },
  {
    "molecule": "CC(C(c1ccc(NC(=O)Cc2ccc3c(c2)OCCO3)cc1)n1ccnc1)N(C)C (single isomer, unassigned) [Compound 339]",
    "tested.target": "metabolism of retinoic acid in human breast cancer cells",
    "pIC50": 8.91
  },
  {
    "molecule": "CC(=CC(=O)Nc1ccc(C(c2ccc(Cl)cc2)n2ccnc2)cc1)c1ccccc1 (racemic) [Compound 512]",
    "tested.target": "metabolism of retinoic acid in human breast cancer cells",
    "pIC50": 6.21
  },
  {
    "molecule": "CC(C)C(c1ccc(NC(=O)Cc2ccc(Cl)cc2Cl)cc1)n1ccnc1 (stereo not shown) [Compound 141]",
    "tested.target": "metabolism of retinoic acid in human breast cancer cells",
    "pIC50": 8.88
  },
  {
    "molecule": "CCC(CC)C(c1ccc(NC(=O)Cc2ccc(Oc3ccccc3)cc2)cc1)n1ccnc1 (racemic) [Compound 103]",
    "tested.target": "metabolism of retinoic acid in human breast cancer cells",
    "pIC50": 8.15
  },
  {
    "molecule": "Cc1ccc(CC(=O)Nc2ccc(C(C(C)C)n3ccnc3)cc2)cc1 (racemic) [Compound 666]",
    "tested.target": "metabolism of retinoic acid in human breast cancer cells",
    "pIC50": 7.84
  },
  {
    "molecule": "CC(C)C(c1ccc(NC(=O)C2CC2)cc1)n1ccnc1 (stereo not shown) [Compound 199]",
    "tested.target": "metabolism of retinoic acid in human breast cancer cells",
    "pIC50": 8.11
  },
  {
    "molecule": "CCC(CC)C(c1ccc(NC(=O)Nc2nc3ccccc3s2)cc1)n1cncn1 (racemic) [Compound 63]",
    "tested.target": "metabolism of retinoic acid in human breast cancer cells",
    "pIC50": 8.17
  }
]

P = CC(C)C(c1ccc(NC(=O)C2COc3ccccc3O2)cc1)n1ccnc1 (stereo not shown) [Compound 175]
Q = Cc1ccc(CC(=O)Nc2ccc(C(C(C)N(C)C)n3ccnc3)cc2)cc1C (single isomer, unassigned) [Compound 306]
Exercise: I need your help: which of the pair P , Q has higher pIC50? // caller expects the label of the chosen entry
Key: Q
(Q: 8.90, P: 8.32)

a = CC(C)C(c1ccc(NC(=O)Nc2cccnc2)cc1)n1ccnc1 (racemic) [Compound 270]
b = CCC(CC)C(c1ccc(NC(=O)Cc2cc(OC)cc(OC)c2)cc1)n1ccnc1 (racemic) [Compound 119]
c = CCC(c1ccc(NC(=O)C(C)=Cc2ccccc2)cc1)(C(C)C)n1ccnc1 (stereo not shown) [Compound 758]
Exercise: Arrange items by their pIC50 values in increasing order. Provide the ranking by listing each label in its place in the requested order.
Key: a, c, b
(a: 8.25, c: 8.73, b: 9.03)
